These measurements were taken from ChEMBL document CHEMBL1132301.

# EXPERIMENTAL_SYSTEM: Carbonic anhydrase 1 (Homo sapiens, UniProt P00915)
# Sequence (P00915 whole entry): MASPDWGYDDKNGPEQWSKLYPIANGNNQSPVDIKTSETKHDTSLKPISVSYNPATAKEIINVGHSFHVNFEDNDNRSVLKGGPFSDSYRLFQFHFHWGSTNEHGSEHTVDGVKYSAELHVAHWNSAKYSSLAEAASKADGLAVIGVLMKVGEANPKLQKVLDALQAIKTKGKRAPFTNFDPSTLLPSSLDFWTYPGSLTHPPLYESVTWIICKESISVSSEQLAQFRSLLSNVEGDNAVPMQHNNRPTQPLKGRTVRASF
pKi values for the compounds below.
Lab note: report pKi as minus log10 of the concentration in molar units, number only.

NS(=O)(=O)c1nnc(NC(=O)CCNC(=O)c2cccc(C(=O)O)n2)s1    7.72
NS(=O)(=O)c1ccc(CCN2C(=O)c3cccnc3C2=O)cc1    6.07
NS(=O)(=O)c1nnc(NC(=O)c2cccc(C(=O)O)n2)s1    7.44
NS(=O)(=O)c1nc2ccc(ONC(=O)c3cccc(C(=O)O)n3)cc2s1    7.80
NS(=O)(=O)c1ccc(CCONC(=O)c2cccc(C(=O)O)n2)cc1    5.70
NS(=O)(=O)c1ccc(CONC(=O)c2cccc(C(=O)O)n2)cc1    5.69
Nc1ccc(S(N)(=O)=O)cc1I    5.22
NS(=O)(=O)c1ccc(N2C(=O)c3cccnc3C2=O)c(Br)c1    6.22

Exam item: Return the recorded pKi value; entry: NS(=O)(=O)c1ccc(NNC(=O)c2cccc(C(=O)O)n2)cc1
Marked response: 4.69

Exam item: // fetch pKi given entry NS(=O)(=O)c1nc2ccc(NC(=O)c3cccc(C(=O)O)n3)cc2s1
Marked response: 7.74

Exam item: Determine its reported pKi: NS(=O)(=O)c1cc(S(N)(=O)=O)c(NC(=O)c2cccc(C(=O)O)n2)c(Cl)c1Cl
Marked response: 6.35

Exam item: Retrieve pKi measured for CCN(C(=O)c1cccnc1C(=O)O)C1CC(C)S(=O)(=O)c2sc(S(N)(=O)=O)cc21.CCN(C(=O)c1ncccc1C(=O)O)C1CC(C)S(=O)(=O)c2sc(S(N)(=O)=O)cc21 (centres undefined) and print it.
Marked response: 6.35

Exam item: Look up and report measured pKi for this entry: NS(=O)(=O)c1ccc(NC(=O)c2cccc(C(=O)O)n2)cc1
Marked response: 4.82

Exam item: Query pKi for NS(=O)(=O)c1ccc(N2C(=O)c3cccnc3C2=O)c(Cl)c1
Marked response: 6.21
